Measured Relative sensitivity (%) when sensitivity in case of no addition is taken as 100% by item
# Tested Target: Inactive α-amylase (from swine pancreas) (Sus scrofa)
# Construct: α-amylase derived from the swine pancreas; from tissue; host or cells: swine pancreas
# Sequence (P00690 16-511): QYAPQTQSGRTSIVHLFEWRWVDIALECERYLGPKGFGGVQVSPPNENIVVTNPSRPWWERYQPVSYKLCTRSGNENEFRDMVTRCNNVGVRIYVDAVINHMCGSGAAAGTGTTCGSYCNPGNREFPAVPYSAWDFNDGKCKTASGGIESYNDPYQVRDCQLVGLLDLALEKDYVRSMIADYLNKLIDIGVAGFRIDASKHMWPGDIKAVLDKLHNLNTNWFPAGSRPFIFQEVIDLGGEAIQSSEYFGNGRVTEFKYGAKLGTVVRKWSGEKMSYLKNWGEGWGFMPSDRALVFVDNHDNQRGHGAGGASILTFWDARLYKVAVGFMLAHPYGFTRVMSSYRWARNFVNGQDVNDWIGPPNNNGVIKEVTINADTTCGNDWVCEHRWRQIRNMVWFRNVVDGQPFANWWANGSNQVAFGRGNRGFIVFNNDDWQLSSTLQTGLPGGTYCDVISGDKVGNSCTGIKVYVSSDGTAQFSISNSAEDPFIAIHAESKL
# Protocol: Relative sensitivity in determination of calcium with 10 mg/dl calcium standard solution
# Assay type: biochemical
# Measurement Context: just after the preparation; 10 mg/dl calcium standard; agent 1.5 mM
# Procedure: [table] […] According to the method as described below, the determination of the amount of calcium was carried out for test solutions just after the preparation with 10 mg/dl calcium standard solution as a sample, and the relative sensitivity (%) was determined under the respective reagent conditions when the sensitivity in the case of no addition of cyclodextrin derivatives was taken as 100%. […]
Record the value in %, omitting the unit from your answer.

{"columns": ["Compound", "Endpoint Result"],
 "data": [
  ["OCC1OC(OC2C(CO)OC(OCC3OC4OC5C(CO)OC(OC6C(CO)OC(OC7C(CO)OC(OC8C(CO)OC(OC9C(CO)OC(OC3C(O)C4O)C(O)C9O)C(O)C8O)C(O)C7O)C(O)C6O)C(O)C5O)C(O)C2O)C(O)C(O)C1O (stereo not drawn) [G2αCD, maltosyl-α-cyclodextrin]", 112.5],
  ["OCC1OC(OCC2OC3OC4C(CO)OC(OC5C(CO)OC(OC6C(CO)OC(OC7C(CO)OC(OC8C(CO)OC(OC9C(CO)OC(OC2C(O)C3O)C(O)C9O)C(O)C8O)C(O)C7O)C(O)C6O)C(O)C5O)C(O)C4O)C(O)C(O)C1O (stereo not drawn) [G1βCD, glucosyl-β-cyclodextrin]", 120.7],
  ["OCC1OC(OC2C(CO)OC(OCC3OC4OC5C(CO)OC(OC6C(CO)OC(OC7C(CO)OC(OC8C(CO)OC(OC9C(CO)OC(OC%10C(CO)OC(OC3C(O)C4O)C(O)C%10O)C(O)C9O)C(O)C8O)C(O)C7O)C(O)C6O)C(O)C5O)C(O)C2O)C(O)C(O)C1O (stereo not drawn) [G2βCD, maltosyl-β-cyclodextrin]", 122.8]
]}

Shifting focus to the compound that follows.
Req: Lab note: need Relative sensitivity (%) when sensitivity in case of no addition is taken as 100% with Inactive α-amylase (from swine pancreas) (Sus scrofa) for entry OCC1OC(OCC2OC3OC4C(CO)OC(OC5C(CO)OC(OC6C(CO)OC(OC7C(CO)OC(OC8C(CO)OC(OC2C(O)C3O)C(O)C8O)C(O)C7O)C(O)C6O)C(O)C5O)C(O)C4O)C(O)C(O)C1O (stereo not drawn) [G1αCD, glucosyl-α-cyclodextrin] , please look it up.
Resp: 112.8

----------
# Protocol: Visual observation of test solutions for deposition of crystals or white turbidity
# Format: physicochemical
# Parameters: key: +: turbidity found; −: no turbidity
# Measurement Context: after storage at 4° C. for 3 months; agent added 6 mM
Measured Parameter: turbidity (visual observation)

{"columns": ["Compound", "turbidity (visual observation)"],
 "data": [
  ["OC[C@H]1O[C@@H]2O[C@H]3[C@H](O)[C@@H](O)[C@@H](O[C@H]4[C@H](O)[C@@H](O)[C@@H](O[C@H]5[C@H](O)[C@@H](O)[C@@H](O[C@H]6[C@H](O)[C@@H](O)[C@@H](O[C@H]7[C@H](O)[C@@H](O)[C@@H](O[C@H]8[C@H](O)[C@@H](O)[C@@H](O[C@H]1[C@H](O)[C@H]2O)O[C@@H]8CO)O[C@@H]7CO)O[C@@H]6CO)O[C@@H]5CO)O[C@@H]4CO)O[C@@H]3CO [βCD, β-cyclodextrin, reference compound]", "+"],
  ["OCC1OC(OCC2OC3OC4C(CO)OC(OC5C(CO)OC(OC6C(CO)OC(OC7C(CO)OC(OC8C(CO)OC(OC9C(CO)OC(OC2C(O)C3O)C(O)C9O)C(O)C8O)C(O)C7O)C(O)C6O)C(O)C5O)C(O)C4O)C(O)C(O)C1O (stereo not shown)", "−"],
  ["OCC1OC(OCC2OC3OC4C(CO)OC(OC5C(CO)OC(OC6C(CO)OC(OC7C(CO)OC(OC8C(CO)OC(OC2C(O)C3O)C(O)C8O)C(O)C7O)C(O)C6O)C(O)C5O)C(O)C4O)C(O)C(O)C1O (stereo not shown)", "−"],
  ["OCC1OC(OC2C(CO)OC(OCC3OC4OC5C(CO)OC(OC6C(CO)OC(OC7C(CO)OC(OC8C(CO)OC(OC9C(CO)OC(OC%10C(CO)OC(OC3C(O)C4O)C(O)C%10O)C(O)C9O)C(O)C8O)C(O)C7O)C(O)C6O)C(O)C5O)C(O)C2O)C(O)C(O)C1O (stereo not shown)", "−"],
  ["OC[C@H]1O[C@@H]2O[C@H]3[C@H](O)[C@@H](O)[C@@H](O[C@H]4[C@H](O)[C@@H](O)[C@@H](O[C@H]5[C@H](O)[C@@H](O)[C@@H](O[C@H]6[C@H](O)[C@@H](O)[C@@H](O[C@H]7[C@H](O)[C@@H](O)[C@@H](O[C@H]1[C@H](O)[C@H]2O)O[C@@H]7CO)O[C@@H]6CO)O[C@@H]5CO)O[C@@H]4CO)O[C@@H]3CO [αCD, α-cyclodextrin, reference compound]", "+"]
]}

Req: Would you kindly share the measured turbidity (visual observation) for OC[C@H]1O[C@@H]2O[C@H]3[C@H](O)[C@@H](O)[C@@H](O[C@H]4[C@H](O)[C@@H](O)[C@@H](O[C@H]5[C@H](O)[C@@H](O)[C@@H](O[C@H]6[C@H](O)[C@@H](O)[C@@H](O[C@H]7[C@H](O)[C@@H](O)[C@@H](O[C@H]8[C@H](O)[C@@H](O)[C@@H](O[C@H]9[C@H](O)[C@@H](O)[C@@H](O[C@H]1[C@H](O)[C@H]2O)O[C@@H]9CO)O[C@@H]8CO)O[C@@H]7CO)O[C@@H]6CO)O[C@@H]5CO)O[C@@H]4CO)O[C@@H]3CO [γCD, γ-cyclodextrin, reference compound] ?
Resp: +

Req: So what does the record say about turbidity (visual observation) for OCC1OC(OC2C(CO)OC(OCC3OC4OC5C(CO)OC(OC6C(CO)OC(OC7C(CO)OC(OC8C(CO)OC(OC9C(CO)OC(OC3C(O)C4O)C(O)C9O)C(O)C8O)C(O)C7O)C(O)C6O)C(O)C5O)C(O)C2O)C(O)C(O)C1O (stereo not shown) ?
Resp: −
